# Assay System: protein kinase C epsilon (Homo sapiens)
# Assay Details: PKC Enzyme assay, epsilon isozyme
# Type: biochemical
# Assay Setup: PKC epsilon; 30 μM ATP, 30° C., 10 minutes; read-out: IC50 ε
pIC50: −log10 of the molar value.
Use 6 as the dividing line for pIC50, with the line itself on the Criterion met side and lower values as Criterion not met.

Is the recorded value of pIC50 equal to or greater than 6 for this compound? CC(=O)N1CCC(n2cc(C3=C(c4cn(C)c5ccccc45)C(=O)NC3=O)c3ccccc32)CC1 [Example 37]
Criterion met

Is the recorded value of pIC50 equal to or greater than 6 for this compound? Cn1cc(C2=C(c3cn(C4CCN(C(=N)N)CC4)c4ccccc34)C(=O)NC2=O)c2ccccc21 [Example 44]
Criterion met

Is the recorded value of pIC50 equal to or greater than 6 for this compound? Cn1cc(C2=C(c3c4n(c5ccccc35)CCC(CO)(CO)C4)C(=O)NC2=O)c2ccccc21 [Example 2]
Criterion not met

Is the recorded value of pIC50 equal to or greater than 6 for this compound? Cn1cc(C2=C(c3cn(C4CCN(Cc5ccccc5)CC4)c4ccccc34)C(=O)NC2=O)c2ccccc21 [Example 4]
Criterion not met

Is the recorded value of pIC50 equal to or greater than 6 for this compound? Cn1cc(C2=C(c3cn(C4CCN(Cc5ccccn5)CC4)c4ccccc34)C(=O)NC2=O)c2ccccc21 [Example 49]
Criterion met

Is the recorded value of pIC50 equal to or greater than 6 for this compound? Cn1cc(C2=C(c3cn(CCOC4C[C@H](N=[N+]=[N-])[C@@H](CO)O4)c4ccccc34)C(=O)NC2=O)c2ccccc21 (stereo partly shown) [Example 61]
Criterion not met

Is the recorded value of pIC50 equal to or greater than 6 for this compound? CC(=O)NCC1OC(OCCCCn2cc(C3=C(c4cn(C)c5ccccc45)C(=O)NC3=O)c3ccccc32)CC1OC(C)=O (stereo not shown) [Example 55]
Criterion not met

====

# Assay System: protein kinase C epsilon (Homo sapiens, UniProt Q02156)
# Sequence (Q02156 1-737): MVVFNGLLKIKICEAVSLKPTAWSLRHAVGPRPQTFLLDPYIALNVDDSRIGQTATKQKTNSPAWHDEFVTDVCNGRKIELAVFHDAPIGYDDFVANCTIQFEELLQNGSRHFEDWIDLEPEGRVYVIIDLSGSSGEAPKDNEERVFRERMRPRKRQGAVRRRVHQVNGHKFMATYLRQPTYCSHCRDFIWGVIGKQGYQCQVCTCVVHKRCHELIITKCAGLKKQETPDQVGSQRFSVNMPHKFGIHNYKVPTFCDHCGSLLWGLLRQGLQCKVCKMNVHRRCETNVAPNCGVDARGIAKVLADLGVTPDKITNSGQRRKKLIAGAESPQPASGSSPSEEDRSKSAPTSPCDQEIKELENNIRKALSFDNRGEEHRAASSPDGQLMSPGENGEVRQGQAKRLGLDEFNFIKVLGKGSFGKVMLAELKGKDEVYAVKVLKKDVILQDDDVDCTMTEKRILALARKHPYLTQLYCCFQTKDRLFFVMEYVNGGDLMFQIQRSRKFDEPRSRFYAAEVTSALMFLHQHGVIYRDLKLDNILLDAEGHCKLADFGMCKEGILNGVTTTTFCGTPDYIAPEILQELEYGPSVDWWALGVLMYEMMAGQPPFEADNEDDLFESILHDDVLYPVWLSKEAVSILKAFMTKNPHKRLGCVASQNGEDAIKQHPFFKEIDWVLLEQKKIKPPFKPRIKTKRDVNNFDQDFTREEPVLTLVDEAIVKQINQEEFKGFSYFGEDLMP
# Assay Details: PKC Enzyme assay, epsilon isozyme
# Assay type: biochemical
# Assay Setup: PKC epsilon; 30 μM ATP, 30° C., 10 minutes; read-out: IC50 ε
# note: exactly 1 µM is not below, so it is no (0); use yes (1) for IC50 strictly under it

Problem: For the compound O=C1NC(=O)C(c2cn(C3CCNCC3)c3ccccc23)=C1c1c[nH]c2ccccc12 , is IC50 under 1 µM?
yes (1)

Problem: For the compound Cn1cc(C2=C(c3cn(CCCCOC4C[C@H](O)[C@@H](CO)O4)c4ccccc34)C(=O)NC2=O)c2ccccc21 (some centres unmarked) , is IC50 under 1 µM?
no (0)

Problem: For the compound Cn1cc(C2=C(c3cn(CCOC4O[C@H](CO)[C@@H](O)[C@@H](O)[C@H]4N=[N+]=[N-])c4ccccc34)C(=O)NC2=O)c2ccccc21 (some centres unmarked) , is IC50 under 1 µM?
no (0)

Problem: For the compound CC(=O)NC[C@H]1O[C@H](OCCn2cc(C3=C(c4cn(C)c5ccccc45)C(=O)NC3=O)c3ccccc32)C[C@@H]1O , is IC50 under 1 µM?
yes (1)

Problem: For the compound CC(C)N1CCC(n2cc(C3=C(c4cn(C)c5ccccc45)C(=O)NC3=O)c3ccccc32)CC1 , is IC50 under 1 µM?
yes (1)

Problem: For the compound CN1CCC(n2cc(C3=C(c4cn(C)c5ccccc45)C(=O)NC3=O)c3ccccc32)CC1 , is IC50 under 1 µM?
yes (1)

Problem: For the compound Cc1c(C2=C(c3cn(CN(C)C)c4ccccc34)C(=O)NC2=O)c2ccccc2n1CCCN(C)C , is IC50 under 1 µM?
no (0)

Problem: For the compound Cn1cc(C2=C(c3cn(C4CCN(c5ccccn5)CC4)c4ccccc34)C(=O)NC2=O)c2ccccc21 , is IC50 under 1 µM?
no (0)

Problem: For the compound Cn1cc(C2=C(c3cn(CCCCOC4CC(O)C(CN)O4)c4ccccc34)C(=O)NC2=O)c2ccccc21 (centres unmarked) [Example 54] , is IC50 under 1 µM?
no (0)

Problem: For the compound CCOC(=O)CN1CCC(n2cc(C3=C(c4cn(C)c5ccccc45)C(=O)NC3=O)c3ccccc32)CC1 , is IC50 under 1 µM?
yes (1)

====

# Assay System: protein kinase C epsilon (Homo sapiens, UniProt Q02156)
# Assay Details: PKC Enzyme assay, epsilon isozyme
# Format: biochemical
Measured Parameter: pIC50
Units for pIC50: none; it is -log10 of a concentration expressed in mol/L.

What reported pIC50 corresponds to CN(C)CCCn1cc(C2=C(c3c[nH]c4ccccc34)C(=O)NC2=O)c2ccccc21 [Example 10] on protein kinase C epsilon (Homo sapiens, UniProt Q02156)?
6.03

What reported pIC50 corresponds to Cn1cc(C2=C(c3cn(C4CCN(C(=O)OC(C)(C)C)CC4)c4ccccc34)C(=O)NC2=O)c2ccccc21 [Example 6] on protein kinase C epsilon (Homo sapiens, UniProt Q02156)?
5.36

What reported pIC50 corresponds to Cn1cc(C2=C(c3cn(C4CCN(Cc5ccccc5)CC4)c4ccccc34)C(=O)NC2=O)c2ccccc21 [Example 47] on protein kinase C epsilon (Homo sapiens, UniProt Q02156)?
5.52

====

# Assay System: protein kinase C beta-2 (Homo sapiens)
# Sequence (P05771 1-673 isoform P05771-2): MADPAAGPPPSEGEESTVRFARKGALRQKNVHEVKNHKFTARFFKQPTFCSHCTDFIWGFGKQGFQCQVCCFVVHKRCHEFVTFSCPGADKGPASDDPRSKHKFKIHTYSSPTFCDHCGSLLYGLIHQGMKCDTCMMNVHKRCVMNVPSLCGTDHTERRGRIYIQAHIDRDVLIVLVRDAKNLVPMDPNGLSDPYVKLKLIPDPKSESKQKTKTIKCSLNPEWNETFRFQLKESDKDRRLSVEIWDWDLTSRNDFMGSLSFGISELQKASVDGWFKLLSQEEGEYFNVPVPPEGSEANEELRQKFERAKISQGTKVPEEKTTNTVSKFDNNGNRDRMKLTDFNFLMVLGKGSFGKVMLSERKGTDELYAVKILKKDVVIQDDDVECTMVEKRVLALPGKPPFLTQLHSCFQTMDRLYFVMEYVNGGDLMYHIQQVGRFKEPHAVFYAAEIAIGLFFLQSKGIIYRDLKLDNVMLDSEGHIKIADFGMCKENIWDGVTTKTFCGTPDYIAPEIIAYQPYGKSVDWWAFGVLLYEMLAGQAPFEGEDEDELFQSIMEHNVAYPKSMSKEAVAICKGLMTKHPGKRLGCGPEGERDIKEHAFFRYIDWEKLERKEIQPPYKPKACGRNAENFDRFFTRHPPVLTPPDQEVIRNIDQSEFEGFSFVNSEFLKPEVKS
# Assay Details: PKC Enzyme assay, beta II isozyme
# Type: biochemical
# Assay Setup: PKC beta-2; 30 μM ATP, 30° C., 10 minutes; read-out: IC50 β2
For each entry below, report its IC50 value.
Express it in nM; write the number only.

Param item = Cn1cc(C2=C(c3cn(CCCCOC4C[C@H](O)[C@@H](CO)O4)c4ccccc34)C(=O)NC2=O)c2ccccc21 (stereo partly drawn) [Example 56] ; retrieve measured IC50.
39

Param item = Cn1cc(C2=C(c3cn(C4CCN(Cc5ccccc5)CC4)c4ccccc34)C(=O)NC2=O)c2ccccc21 [Example 47] ; retrieve measured IC50.
50

Param item = Cn1cc(C2=C(c3cn(CCOC4C[C@H](N=[N+]=[N-])[C@@H](CO)O4)c4ccccc34)C(=O)NC2=O)c2ccccc21 (stereo partly drawn) [Example 61] ; retrieve measured IC50.
41

Param item = CN1CCC(Cn2cc(C3=C(c4cn(C)c5ccccc45)C(=O)NC3=O)c3ccccc32)CC1 [Example 68] ; retrieve measured IC50.
33

Param item = CC(=O)OCC1(COC(C)=O)CCn2c(c(C3=C(c4cn(C)c5ccccc45)C(=O)NC3=O)c3ccccc32)C1 [Example 1] ; retrieve measured IC50.
300

Param item = Cn1cc(C2=C(c3cn(CCOC4O[C@H](CO)[C@@H](O)[C@@H](N)[C@H]4O)c4ccccc34)C(=O)NC2=O)c2ccccc21 (stereo partly drawn) [Example 67] ; retrieve measured IC50.
200

Param item = CC(=O)NCC1OC(OCCCCn2cc(C3=C(c4cn(C)c5ccccc45)C(=O)NC3=O)c3ccccc32)CC1OC(C)=O (stereo not drawn) [Example 55] ; retrieve measured IC50.
50

Param item = CN1CCC(n2cc(C3=C(c4cn(C)c5ccccc45)C(=O)NC3=O)c3ccccc32)CC1 [Example 42] ; retrieve measured IC50.
10

Param item = Cn1cc(C2=C(c3cn(CCOC4O[C@H](CO)[C@@H](O)[C@@H](O)[C@H]4N=[N+]=[N-])c4ccccc34)C(=O)NC2=O)c2ccccc21 (stereo partly drawn) [Example 60] ; retrieve measured IC50.
42

Param item = CCOC(=O)CN1CCC(n2cc(C3=C(c4cn(C)c5ccccc45)C(=O)NC3=O)c3ccccc32)CC1 [Example 38] ; retrieve measured IC50.
50

Param item = O=C1NC(=O)C(c2cn(Cc3ccccc3)c3ccccc23)=C1c1c[nH]c2ccccc12 [Example 14] ; retrieve measured IC50.
1140

Param item = CC(=O)NCC1OC(OCCCCn2cc(C3=C(c4cn(C)c5ccccc45)C(=O)N(C(C)=O)C3=O)c3ccccc32)CC1OC(C)=O (stereo not drawn) [Example 70] ; retrieve measured IC50.
190
